Quick list: Crabgrass plant response rating per entry.
Test system: crabgrass
protocol notes: Test B pre/postemergence crabgrass
Type: in vivo, Digitaria sanguinalis
condition context: Preemergence, Rate 125 g/ha; scale of 0 to 10 where 0 is no effect and 10 is complete control
Output: the number by itself.

Examples with their reported Crabgrass plant response rating follow.
[[record]]
compound = "CCC=CCn1c(=O)on(C(=O)N(c2ccccc2)C(C)C)c1=O [Compound 582]"
measure_name = "Crabgrass plant response rating"
measured_number = 0

[[record]]
compound = "CC(C)N(C(=O)n1oc(=O)n(CCC2=NOCCC2)c1=O)c1ccc(F)cc1 [Compound 656]"
measure_name = "Crabgrass plant response rating"
measured_number = 7

[[record]]
compound = "CC(C)N(C(=O)n1oc(=O)n(CC[N+](=O)[O-])c1=O)c1ccc(F)cc1F [Compound 591]"
measure_name = "Crabgrass plant response rating"
measured_number = 0

[[record]]
compound = "C=C(C)Cn1c(=O)on(C(=O)N(c2ccccc2)C(C)C)c1=O [Compound 607]"
measure_name = "Crabgrass plant response rating"
measured_number = 8

[[record]]
compound = "COCCn1c(=O)on(C(=O)N(c2ccc(F)cc2F)C(C)C)c1=O [Compound 628]"
measure_name = "Crabgrass plant response rating"
measured_number = 8

[[record]]
compound = "CC(C)N(C(=O)n1oc(=O)n(CSC#N)c1=O)c1ccc(F)cc1 [Compound 618]"
measure_name = "Crabgrass plant response rating"
measured_number = 0

[[record]]
compound = "CC(C)N(C(=O)n1oc(=O)n(CC2CCCCO2)c1=O)c1ccccc1 (centres unmarked) [Compound 659]"
measure_name = "Crabgrass plant response rating"
measured_number = 8


// moving on: another record for Crabgrass plant response rating
q: Data request, read-out Crabgrass plant response rating, for CC(C)N(C(=O)n1oc(=O)n(CC2CCC2)c1=O)c1ccccc1 [Compound 580]
a: 6

====

Test system: giant foxtail
protocol notes: Test B pre/postemergence giant foxtail
Format: in vivo, Setaria faberii
condition context: Preemergence, Rate 125 g/ha; scale of 0 to 10 where 0 is no effect and 10 is complete control
Quick list: Plant response rating, Giant foxtail per entry.
Output: the number by itself.

[[record]]
compound = "CC(C)N(C(=O)n1oc(=O)n(CC2CCCCO2)c1=O)c1ccc(F)cc1F (centres unmarked) [Compound 715]"
measured_number = 10

[[record]]
compound = "CC(C)N(C(=O)n1oc(=O)n(C(C)C2CCC2)c1=O)c1ccc(F)cc1 (centres unmarked) [Compound 718]"
measured_number = 10

[[record]]
compound = "COC(CCl)n1c(=O)on(C(=O)N(c2ccc(Cl)cc2)C(C)C)c1=O (centres unmarked) [Compound 725]"
measured_number = 8


q: Data request, read-out Plant response rating, Giant foxtail, for CC(C)N(C(=O)n1oc(=O)n(C(C)Cl)c1=O)c1ccccc1 (centres unmarked) [Compound 438]
a: 7

q: Data request, read-out Plant response rating, Giant foxtail, for CC(C)N(C(=O)n1oc(=O)n(C(C)C(=S)N(C)C)c1=O)c1ccccc1 (centres unmarked) [Compound 704]
a: 7

q: Data request, read-out Plant response rating, Giant foxtail, for CC(C)N(C(=O)n1oc(=O)n(CC2=NOCC2)c1=O)c1ccc(F)cc1 [Compound 466]
a: 10

q: Data request, read-out Plant response rating, Giant foxtail, for CC(C)N(C(=O)n1oc(=O)n(C(C)C=O)c1=O)c1ccccc1 (centres unmarked) [Compound 693]
a: 0
